SYSTEM NAME: Voltage-dependent L-type calcium channel subunit alpha-1C (Rattus norvegicus, UniProt P22002)
Sequence (P22002 whole entry): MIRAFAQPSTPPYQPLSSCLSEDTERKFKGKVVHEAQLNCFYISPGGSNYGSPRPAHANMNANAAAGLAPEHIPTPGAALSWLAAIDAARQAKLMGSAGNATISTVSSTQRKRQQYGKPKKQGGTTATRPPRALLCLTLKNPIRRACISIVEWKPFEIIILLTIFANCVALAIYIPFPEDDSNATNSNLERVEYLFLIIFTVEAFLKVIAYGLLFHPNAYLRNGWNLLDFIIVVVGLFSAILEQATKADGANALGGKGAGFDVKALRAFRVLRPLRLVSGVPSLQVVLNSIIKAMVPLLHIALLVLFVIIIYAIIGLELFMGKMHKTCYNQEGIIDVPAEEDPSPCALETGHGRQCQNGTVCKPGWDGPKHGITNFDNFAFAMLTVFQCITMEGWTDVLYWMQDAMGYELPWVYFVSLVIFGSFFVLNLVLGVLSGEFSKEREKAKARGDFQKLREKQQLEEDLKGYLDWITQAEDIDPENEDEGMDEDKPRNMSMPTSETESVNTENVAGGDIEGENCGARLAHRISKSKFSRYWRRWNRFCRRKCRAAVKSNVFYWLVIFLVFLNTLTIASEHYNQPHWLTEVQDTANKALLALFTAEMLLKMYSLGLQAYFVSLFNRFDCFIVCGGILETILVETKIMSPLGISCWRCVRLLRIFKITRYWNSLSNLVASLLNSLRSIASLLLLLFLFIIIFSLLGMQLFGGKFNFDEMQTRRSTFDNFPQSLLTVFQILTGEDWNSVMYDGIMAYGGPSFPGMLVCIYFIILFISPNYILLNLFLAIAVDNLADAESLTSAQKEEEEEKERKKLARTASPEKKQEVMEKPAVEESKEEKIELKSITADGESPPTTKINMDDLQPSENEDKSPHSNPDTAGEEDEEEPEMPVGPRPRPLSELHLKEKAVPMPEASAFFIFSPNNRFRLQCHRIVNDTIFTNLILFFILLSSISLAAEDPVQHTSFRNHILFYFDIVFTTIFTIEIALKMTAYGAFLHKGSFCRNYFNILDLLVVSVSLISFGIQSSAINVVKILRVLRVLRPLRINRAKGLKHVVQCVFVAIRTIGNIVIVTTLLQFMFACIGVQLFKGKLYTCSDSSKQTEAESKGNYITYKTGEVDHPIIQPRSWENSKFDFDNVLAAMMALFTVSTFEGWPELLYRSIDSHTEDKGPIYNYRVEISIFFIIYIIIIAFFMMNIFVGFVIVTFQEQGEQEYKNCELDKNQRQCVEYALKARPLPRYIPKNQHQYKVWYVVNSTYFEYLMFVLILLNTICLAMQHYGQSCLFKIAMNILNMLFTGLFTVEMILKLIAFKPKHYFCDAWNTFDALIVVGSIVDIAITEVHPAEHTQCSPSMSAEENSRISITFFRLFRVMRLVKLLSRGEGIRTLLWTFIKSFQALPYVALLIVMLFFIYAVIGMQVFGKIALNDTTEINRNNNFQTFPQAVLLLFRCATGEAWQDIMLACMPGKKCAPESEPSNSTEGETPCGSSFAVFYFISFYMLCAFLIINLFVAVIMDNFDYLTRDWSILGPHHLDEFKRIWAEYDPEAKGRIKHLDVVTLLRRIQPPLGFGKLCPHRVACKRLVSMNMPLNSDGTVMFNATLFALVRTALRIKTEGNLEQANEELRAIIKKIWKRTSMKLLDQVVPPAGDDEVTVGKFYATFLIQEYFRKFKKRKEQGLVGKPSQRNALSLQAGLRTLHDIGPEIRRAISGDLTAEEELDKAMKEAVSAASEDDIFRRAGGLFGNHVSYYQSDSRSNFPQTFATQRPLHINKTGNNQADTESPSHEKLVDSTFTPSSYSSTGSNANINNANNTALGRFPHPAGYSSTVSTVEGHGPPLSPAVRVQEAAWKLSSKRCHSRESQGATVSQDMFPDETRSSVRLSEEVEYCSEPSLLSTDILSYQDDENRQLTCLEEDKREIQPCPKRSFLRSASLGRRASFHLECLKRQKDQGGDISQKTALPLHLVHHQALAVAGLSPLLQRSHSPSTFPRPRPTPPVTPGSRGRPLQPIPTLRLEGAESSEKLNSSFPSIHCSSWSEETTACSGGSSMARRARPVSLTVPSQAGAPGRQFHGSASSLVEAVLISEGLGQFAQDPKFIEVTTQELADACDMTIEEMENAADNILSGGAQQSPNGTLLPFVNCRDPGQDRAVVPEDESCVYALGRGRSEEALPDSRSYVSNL
ASSAY TEXT: Inhibition of rat Cav1.2 channel in rat mesenteric artery assessed as relaxation of 70 mM K+ induced contraction
Type: tissue-based
ASSAY CONDITIONS: rat
MEASURED QUANTITY: inhibition (INH)

compound="COc1ccc(C2C=C(c3ccccc3)NC(C)=C2C(=O)SC(C)(C)C)cc1 (stereo unspecified)" measured_quantity="inhibition (INH)" result_value="Dose-dependent effect"
compound="CCOC(=O)C1=C(C)NC(c2ccccc2)=CC1c1ccc(OC)cc1 (stereo unspecified)" measured_quantity="inhibition (INH)" result_value="Dose-dependent effect"
compound="CCOC(=O)C1=C(C)NC(c2ccc(Cl)cc2)=CC1c1ccc(Cl)cc1 (stereo unspecified)" measured_quantity="inhibition (INH)" result_value="Dose-dependent effect"
compound="CC(=O)C1=C(C)NC(c2ccccc2)=CC1c1ccccc1 (stereo unspecified)" measured_quantity="inhibition (INH)" result_value="Dose-dependent effect"
compound="CCOC(=O)C1=C(C)NC(c2ccco2)=CC1c1ccc(C)cc1 (stereo unspecified)" measured_quantity="inhibition (INH)" result_value="Dose-dependent effect"
compound="CCOC(=O)C1=C(C)NC(c2ccccc2)=CC1c1ccc(C)cc1 (stereo unspecified)" measured_quantity="inhibition (INH)" result_value="Dose-dependent effect"

These data points were gathered from ChEMBL document CHEMBL3259712.
